Values compiled from patent US20250152553A1.

TEST DETAILS: Plasma stability in mouse plasma
Format: in vitro ADME
SETUP CONDITIONS: 1 μM, 30 min
MEASUREMENT NAME: Remaining Percentages (%) 30 min

> print(dat)
                                    compound  reported.measurement
 1  CCSC(=O)NC(C)Cc1ccc2c(c1)OCO2 (stereo not drawn) [Prodrug 8]                106.34
 2  CCSC(=S)NC(C)Cc1ccc2c(c1)OCO2 (stereo not drawn) [Prodrug 12]                 92.04
 3  COC(=S)N(C)C(C)Cc1ccc2c(c1)OCO2 (stereo not drawn) [Prodrug 1]                 96.20
 4  CCSC(=O)N(C)C(C)Cc1ccc2c(c1)OCO2 (stereo not drawn) [Prodrug 7]                111.95
 5  COC(=S)NC(C)Cc1ccc2c(c1)OCO2 (stereo not drawn) [Prodrug 2]                 99.62
 6  CCSC(=S)N(C)C(C)Cc1ccc2c(c1)OCO2 (stereo not drawn) [Prodrug 11]                101.25
 7  CSC(=S)N(C)C(C)Cc1ccc2c(c1)OCO2 (stereo not drawn) [Prodrug 9]                 96.64
 8  CCOC(=S)N(C)C(C)Cc1ccc2c(c1)OCO2 (stereo not drawn) [Prodrug 3]                 97.30
 9  CCOC(=S)NC(C)Cc1ccc2c(c1)OCO2 (stereo not drawn) [Prodrug 4]                100.28
10  CSC(=S)NC(C)Cc1ccc2c(c1)OCO2 (stereo not drawn) [Prodrug 10]                 98.00
11  CSC(=O)NC(C)Cc1ccc2c(c1)OCO2 (stereo not drawn) [Prodrug 6]                103.77
12  CSC(=O)N(C)C(C)Cc1ccc2c(c1)OCO2 (stereo not drawn) [Prodrug 5]                 98.96
